- system: T1, IL-1β (UniProt P01584 117-269)
- T1 construct: Antigen of XPA23
- method description: Biacore, Fab periplasmic extract
Provide the recorded fold difference in affinity against the original for the entries that follow.
Numbers only, in fold.

Worked examples follow.
XPA23 heavy chain M57V (Fab, V domains shown, Fab, periplasmic extract; also called C5A M57V) VH: EVQLLESGGGLVQPGGSLRLSCAASGFTFSKYFMFWVRQAPGKGLEWVSVISPSGGVTRYADSVKGRFTISRDNSKNTLYLQMNSLRAEDTAVYYCARVGYGGNSDYWGQGTLVTVSS VL: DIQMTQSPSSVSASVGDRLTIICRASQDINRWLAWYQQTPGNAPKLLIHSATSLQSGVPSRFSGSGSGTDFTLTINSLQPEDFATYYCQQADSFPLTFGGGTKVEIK = 0.03
XPA23 heavy chain S105T (Fab, V domains shown, Fab, periplasmic extract; also called C5A S105T) VH: EVQLLESGGGLVQPGGSLRLSCAASGFTFSKYFMFWVRQAPGKGLEWVSVISPSGGMTRYADSVKGRFTISRDNSKNTLYLQMNSLRAEDTAVYYCARVGYGGNTDYWGQGTLVTVSS VL: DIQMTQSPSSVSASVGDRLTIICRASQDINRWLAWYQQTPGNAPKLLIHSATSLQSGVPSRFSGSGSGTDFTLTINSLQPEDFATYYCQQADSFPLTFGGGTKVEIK = 0.11

Let's switch to this binder now.
Quick note, fold difference in affinity against the original for XPA23 heavy chain G56T (Fab, V domains shown, Fab, periplasmic extract; also called C5A G56T) VH: EVQLLESGGGLVQPGGSLRLSCAASGFTFSKYFMFWVRQAPGKGLEWVSVISPSGTMTRYADSVKGRFTISRDNSKNTLYLQMNSLRAEDTAVYYCARVGYGGNSDYWGQGTLVTVSS VL: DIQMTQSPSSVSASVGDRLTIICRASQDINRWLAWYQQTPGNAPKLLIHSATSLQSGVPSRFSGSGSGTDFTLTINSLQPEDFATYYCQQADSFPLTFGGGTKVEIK landed at 1.11

The origin of these recorded values is patent US20110118131A1.
